molecular target: BCL-2 (Homo sapiens); assay: HTRF BCL-2/BAK assay (Cisbio); conditions: recombinant human Tag1-BCL-2 2 nM, Tag2-BAK 10 nM
pIC50: −log10 of the molar value.
Measured pIC50, listed per entry.

molecule	pIC50
O=C(NS(=O)(=O)c1ccc(NCC2CC3(COC3)C2)c([N+](=O)[O-])c1)c1ccc(N2CCN(C3CCCCc4c(Cl)cccc43)CC2)cc1Oc1cnc2[nH]ccc2c1 (stereo not shown) [Compound 46]	> 7.70
CC(C)(C)OC(=O)N1CCC2(CC1)CC(CNc1ccc(S(=O)(=O)NC(=O)c3ccc(N4CCN([C@@H]5CCCCc6c(Cl)cccc65)CC4)cc3)cc1[N+](=O)[O-])C2 [Compound 116]	< 5.70
O=C(NS(=O)(=O)c1ccc(NCC2CCOCC2)c([N+](=O)[O-])c1)c1ccc(N2CCN(C3CCCCc4ccccc43)CC2)cc1Oc1cnc2[nH]ccc2c1 (stereo not shown) [Compound 6]	> 7.70
O=C(NS(=O)(=O)c1ccc(NCC2CC3(CCN(CCF)CC3)C2)c([N+](=O)[O-])c1)c1ccc(N2CCN([C@@H]3CCCCc4c(Cl)cccc43)CC2)cc1Oc1cnc2[nH]ccc2c1 [Compound 114]	> 7.70
CC(C)C(=O)N1CCC2(CC1)CC(CNc1ccc(S(=O)(=O)NC(=O)c3ccc(N4CCN([C@@H]5CCCCc6c(Cl)cccc65)CC4)cc3Oc3cnc4[nH]ccc4c3)cc1[N+](=O)[O-])C2 [Compound 124]	> 7.70
C=C(C)c1cccc2c1CCCCC2N1CCN(c2ccc(C(=O)NS(=O)(=O)c3ccc(NCC4CCOCC4)c([N+](=O)[O-])c3)c(Oc3cnc4[nH]ccc4c3)c2)CC1 (stereo not shown) [Compound 50]	> 7.70
O=C(NS(=O)(=O)c1ccc(NCC2CCOCC2)c([N+](=O)[O-])c1)c1ccc(N2CCN(C3CCCCc4ccc(F)cc43)CC2)cc1Oc1cnc2[nH]ccc2c1 (stereo not shown) [Compound 37]	> 7.70
CC(C)(C)OC(=O)NCCN1CCC2(CC1)CC(CNc1ccc(S(=O)(=O)NC(=O)c3ccc(N4CCN([C@@H]5CCCCc6c(Cl)cccc65)CC4)cc3Oc3cnc4[nH]ccc4c3)cc1[N+](=O)[O-])C2 [Compound 109]	> 7.70
O=C(NS(=O)(=O)c1ccc(NCC2CCOCC2)c([N+](=O)[O-])c1)c1ccc(N2CCN(C3CCCCc4c(Br)cccc43)CC2)cc1Oc1cnc2[nH]ccc2c1 (stereo not shown) [Compound 18]	> 7.70
O=C(NS(=O)(=O)c1ccc(NCC2CCOCC2)c([N+](=O)[O-])c1)c1ccc(N2CC3(C2)CN(C2CCCc4ccccc42)C3)cc1Oc1cnc2[nH]ccc2c1 (stereo not shown) [Compound 96]	6.70 to 7.70

* * *

target: BCL-2 (Homo sapiens, UniProt P10415); experiment: HTRF BCL-2/BAK assay (Cisbio); details: recombinant human Tag1-BCL-2 2 nM, Tag2-BAK 10 nM
Sequence (P10415 whole entry): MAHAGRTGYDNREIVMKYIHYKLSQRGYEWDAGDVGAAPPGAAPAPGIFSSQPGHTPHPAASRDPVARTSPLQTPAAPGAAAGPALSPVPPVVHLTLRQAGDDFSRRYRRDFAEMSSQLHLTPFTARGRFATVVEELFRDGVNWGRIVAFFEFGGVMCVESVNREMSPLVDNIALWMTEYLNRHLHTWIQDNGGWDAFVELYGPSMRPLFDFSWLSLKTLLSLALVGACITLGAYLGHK
pIC50: −log10 of the molar value.

compound	assay_system	pIC50
O=C(NS(=O)(=O)c1ccc(NCC2CC3(CCC(F)(F)CC3)C2)c([N+](=O)[O-])c1)c1ccc(N2CCN([C@@H]3CCCCc4c(Cl)cccc43)CC2)cc1Oc1cnc2[nH]ccc2c1	BCL-2 (Homo sapiens, UniProt P10415)	> 7.70
CC(=O)NCCN1CCC2(CC1)CC(CNc1ccc(S(=O)(=O)NC(=O)c3ccc(N4CCN([C@@H]5CCCCc6c(Cl)cccc65)CC4)cc3Oc3cnc4[nH]ccc4c3)cc1[N+](=O)[O-])C2	BCL-2 (Homo sapiens, UniProt P10415)	> 7.70
CC(=O)N1CCN(CCNc2ccc(S(=O)(=O)NC(=O)c3ccc(N4CCN(C5CCCCc6c(Cl)cccc65)CC4)cc3Oc3cnc4[nH]ccc4c3)cc2[N+](=O)[O-])CC1 (centres unmarked)	BCL-2 (Homo sapiens, UniProt P10415)	> 7.70
O=C(NS(=O)(=O)c1ccc(NCC2COC3OCCC23)c([N+](=O)[O-])c1)c1ccc(N2CCN(C3CCCCc4c(Cl)cccc43)CC2)cc1Oc1cnc2[nH]ccc2c1 (centres unmarked)	BCL-2 (Homo sapiens, UniProt P10415)	> 7.70
O=C(NS(=O)(=O)c1ccc(NCC2CCOCC2)c([N+](=O)[O-])c1)c1ccc(N2CCN(C3CCCCc4cc(Br)ccc43)CC2)cc1Oc1cnc2[nH]ccc2c1 (centres unmarked)	BCL-2 (Homo sapiens, UniProt P10415)	6.70 to 7.70
